Just for reference, paper PMC12363564 is where these values come from.

Target: T1, 6xHis-tagged hPTPRS Fn9 (residues 1117-1270) (human, UniProt Q13332 1117-1270)
T1 chain: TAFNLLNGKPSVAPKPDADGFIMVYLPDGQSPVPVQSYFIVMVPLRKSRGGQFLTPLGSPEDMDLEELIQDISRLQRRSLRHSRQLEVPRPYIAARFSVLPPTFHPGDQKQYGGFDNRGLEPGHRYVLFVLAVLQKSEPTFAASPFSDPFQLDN
Experiment: BLI
Value type: pKd
The quantity pKd is defined as the negative base-10 logarithm of the molar concentration.

Prompt: Please report the recorded pKd for 22H8 (mouse monoclonal antibody, IgG1/κ) (antibody, V domains shown, VH of 22H8; constant region of the mouse IgG1 heavy chain; VL of 22H8; constant region of the mouse κ light chain; IgG1/κ; source: production contracted to Viva Biotech) VH: QVQLQQSGAELARPGASVKLSCKASGYTFTSYWMQWVKQRPGQGLEWIGAIYPGDGDTRYTQKFKGKATLTADKSSSTAYMQLSSLASEDSAVYYCARRIYYGYYYAMDYWGQGTSVTVSS VL: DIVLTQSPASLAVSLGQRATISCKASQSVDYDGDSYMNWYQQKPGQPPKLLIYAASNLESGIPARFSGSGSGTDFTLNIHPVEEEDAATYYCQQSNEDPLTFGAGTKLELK .
Response: 7.75
